This collection of values is drawn from patent US20210332115A1.

# SYSTEM_UNDER_TEST: T1, Homo sapiens factor Bb protein (human, UniProt P00751 260-764)
# T1 construct: Bought from CompTech (A155); also called complement factor Bb; human factor Bb
# TEST: SPR single cycle kinetics; ratio against VH0/Vκ0
RECORDED_ENDPOINT: Relative KD
Would you mind answering with just the numeric figure?

BINDER: VH3/Vκ4 (antibody, V domains shown) VH: EVQLVESGGGLVKPGGSLRLSCAASGFTFSNYAMSWVRQAPGKGLEWVATISNRGSYTYYADSVKGRFTISRDNAKNSLYLQMNSLRAEDTALYYCARERPMDYWGQGTLVTVSS VL: DIQMTQSPSTLSASVGDRVTITCRASQDVGTAVAWYQQKPGQPPKLLIYWASTRHTGVPDRFSGSGSGTDFTLTISSLQAEDFAVYYCHQHSSNPLTFGQGTKLEIK
RECORDED_ENDPOINT: Relative KD
QUANTITATIVE_READOUT: 9.83

Here is the next item to consider.
So what does the record say about Relative KD for VH3/Vκ5 (antibody, V domains shown) VH: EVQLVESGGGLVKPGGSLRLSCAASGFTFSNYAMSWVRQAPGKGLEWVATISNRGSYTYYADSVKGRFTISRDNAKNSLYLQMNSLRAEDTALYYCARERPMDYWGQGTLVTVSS VL: DIQMTQSPSTLSASVGDRVTITCRASQDVGTAVAWYQQKPGQPPKLLIYWASTRHTGVPDRFSGSGSGTDFTLTISSLQAEDFATYYCHQHSSNPLTFGQGTKLEIK ? 8.98
